pIC50: −log10 of the molar value.
Consider the following pIC50 values measured on human SCD1 (hSCD-1) (Homo sapiens, UniProt O00767).
Sequence (O00767 whole entry): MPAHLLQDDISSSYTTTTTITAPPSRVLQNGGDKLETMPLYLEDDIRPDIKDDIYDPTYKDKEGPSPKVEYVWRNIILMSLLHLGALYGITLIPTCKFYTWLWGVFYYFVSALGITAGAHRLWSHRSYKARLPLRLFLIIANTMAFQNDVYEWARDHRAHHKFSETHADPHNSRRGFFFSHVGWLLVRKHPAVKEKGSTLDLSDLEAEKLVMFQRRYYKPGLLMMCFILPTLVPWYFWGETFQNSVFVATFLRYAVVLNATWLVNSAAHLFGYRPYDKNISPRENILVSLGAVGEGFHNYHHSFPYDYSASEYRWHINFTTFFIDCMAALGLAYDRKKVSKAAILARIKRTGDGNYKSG

O=C(O)Cn1nnc(-c2cc(N3CCC(C(=O)c4ccccc4OC(F)F)CC3)no2)n1 : 7.40
O=C(O)Cn1nnc(-c2cc(N3CCN(C(=O)c4cccc(OC(F)(F)F)c4)CC3)no2)n1 : > 7.70
O=C(O)Cn1nnc(-c2cnc(N3C[C@@H]4C[C@H]3CN4c3cccc(Cl)c3)s2)n1 : > 7.70

[in] Write down the reported pIC50 of CCC(C)c1ccc(F)cc1C(=O)C1CCN(c2cc(-c3nnn(CC(=O)O)n3)on2)CC1 (stereo not drawn) [drawing 71] , test system: human SCD1 (hSCD-1) (Homo sapiens, UniProt O00767).
[out] > 7.70

[in] Subsequent entry: `O=C(O)Cn1nnc(-c2cc(N3CCC(C(=O)c4ccccc4Br)CC3)no2)n1`
[out] 7.55

[in] Subsequent entry: `O=C(O)Cn1nnc(-c2cnc(N3CCC(C(=O)c4cc(F)ccc4C(F)(F)F)CC3)nc2)n1`
[out] 7.57
